- Tgt: T1, ZFP SBS#1062 (synthetic)
- T1 chain: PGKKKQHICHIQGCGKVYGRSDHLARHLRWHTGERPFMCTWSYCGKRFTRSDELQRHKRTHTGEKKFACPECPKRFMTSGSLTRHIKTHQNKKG
- Test: EMSA
- Assay Setup: tags: MBP fusion
Quantity Name: Kd
Returns: string containing the number followed by the unit.

Prompt: Reported Kd, binder GTTGCGGGG (dsDNA) DNA 1: GTTGCGGGG DNA 2: CCCCGCAAC : ____
Response: 0.068 nM

src = patent US20030068675
